TARGET_OR_TEST_SYSTEM: Fibroblast growth factor receptor 2 (Homo sapiens) (UniProt P21802);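 note: values are mean percent inhibition of FGFR2 kinase, measured within the GSK Published Kinase Inhibitor Set (PKIS) screening panel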
Sequence (P21802 22-821 limits assumed): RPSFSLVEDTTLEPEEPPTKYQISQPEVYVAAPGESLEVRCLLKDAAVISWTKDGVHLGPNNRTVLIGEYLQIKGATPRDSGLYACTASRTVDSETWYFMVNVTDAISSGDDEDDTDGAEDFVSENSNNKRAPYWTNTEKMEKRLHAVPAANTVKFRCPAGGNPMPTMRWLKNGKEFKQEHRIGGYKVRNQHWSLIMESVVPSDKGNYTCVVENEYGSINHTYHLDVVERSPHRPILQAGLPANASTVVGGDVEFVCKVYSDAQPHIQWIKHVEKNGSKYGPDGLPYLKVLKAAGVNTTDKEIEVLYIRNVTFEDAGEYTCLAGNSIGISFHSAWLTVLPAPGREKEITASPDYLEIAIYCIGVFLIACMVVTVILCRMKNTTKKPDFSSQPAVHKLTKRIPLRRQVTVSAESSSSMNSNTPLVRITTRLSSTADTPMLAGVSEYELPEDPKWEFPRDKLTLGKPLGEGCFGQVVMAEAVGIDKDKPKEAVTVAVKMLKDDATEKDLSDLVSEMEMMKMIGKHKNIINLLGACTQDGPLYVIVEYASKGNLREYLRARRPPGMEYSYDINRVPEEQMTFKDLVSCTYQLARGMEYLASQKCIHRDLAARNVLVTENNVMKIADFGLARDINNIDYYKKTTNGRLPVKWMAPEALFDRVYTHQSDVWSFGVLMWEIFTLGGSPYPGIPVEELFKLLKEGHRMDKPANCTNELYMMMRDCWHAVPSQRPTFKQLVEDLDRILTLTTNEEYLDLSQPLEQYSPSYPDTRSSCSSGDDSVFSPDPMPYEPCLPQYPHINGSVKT
MEASUREMENT_CONTEXT: at 0.1 µM
The following compounds are listed with their measured inhibition values.
OBSERVED_PROPERTY: inhibition (%)

| CHEM_SMILES | UNIT_TAG | NUMERIC_READOUT |
| --- | --- | --- |
| O=C1NC(=O)C(c2cccc(Cl)c2)=C1Nc1ccc(Cl)c(C(=O)O)c1 | % | 8.43 |
| Fc1ccc(-c2nc3n(c2-c2ccncc2)CCS3)cc1 | % | -0.33 |
| COc1ccc2cc(-c3c(-c4ccncc4)nc(-c4ccc(S(C)(=O)=O)cc4C)n3C)ccc2c1 | % | 3.92 |
| Cc1ccc(C(=O)NC2CCC2)cc1-c1ccc(C(=O)NCC2CC2)cc1 | % | 2.36 |
| CN1CCN(CCCNc2nc3ccc(Oc4ccc(NC(=O)Nc5cc(C(F)(F)F)ccc5F)cc4)cc3[nH]2)CC1 | % | -1.49 |
| CN(c1ccc(NC(=O)Nc2c(Cl)cccc2Cl)cc1)c1ccnc(Nc2cccc(CS(C)(=O)=O)c2)n1 | % | 3.91 |
| C[C@@H](Oc1cc(-n2cnc3ccc(OC4CCN(C)CC4)cc32)sc1C(N)=O)c1ccccc1Cl | % | 4.51 |
| COc1cc(Nc2ncc(-c3ccccc3)o2)cc(OC)c1OC | % | 4.47 |
| COc1cccc(/C=N/Nc2ncnc3c2cnn3-c2cccc(OC)c2)c1 | % | 5.34 |
| c1ccc(Oc2ccc(Nc3ncc(-c4ccccc4)o3)cc2)cc1 | % | 1.12 |

---

TARGET_OR_TEST_SYSTEM: Serine/threonine-protein kinase TBK1 (Homo sapiens);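 note: values are the mean TBK1 inhibition, taken from the GSK PKIS screening data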
Sequence (whole entry): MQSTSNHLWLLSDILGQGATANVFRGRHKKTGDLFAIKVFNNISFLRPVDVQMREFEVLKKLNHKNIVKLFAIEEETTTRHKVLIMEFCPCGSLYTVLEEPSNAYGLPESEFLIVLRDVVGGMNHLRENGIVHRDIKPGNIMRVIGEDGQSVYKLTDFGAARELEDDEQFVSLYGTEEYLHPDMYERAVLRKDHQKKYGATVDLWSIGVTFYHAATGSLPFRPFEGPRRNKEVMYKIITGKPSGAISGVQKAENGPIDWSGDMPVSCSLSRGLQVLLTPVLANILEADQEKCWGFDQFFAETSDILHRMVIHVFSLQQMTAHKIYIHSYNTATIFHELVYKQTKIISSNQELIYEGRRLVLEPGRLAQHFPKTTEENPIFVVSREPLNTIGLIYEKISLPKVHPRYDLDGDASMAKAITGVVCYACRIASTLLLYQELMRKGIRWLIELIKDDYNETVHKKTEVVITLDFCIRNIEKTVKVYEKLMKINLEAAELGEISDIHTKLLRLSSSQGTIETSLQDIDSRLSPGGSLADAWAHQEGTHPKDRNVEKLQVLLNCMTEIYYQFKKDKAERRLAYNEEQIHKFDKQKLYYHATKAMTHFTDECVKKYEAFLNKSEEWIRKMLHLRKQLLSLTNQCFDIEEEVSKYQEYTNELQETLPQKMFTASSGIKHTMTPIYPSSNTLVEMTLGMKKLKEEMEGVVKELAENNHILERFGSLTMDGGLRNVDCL
MEASUREMENT_CONTEXT: at 0.1 µM
In this section we review reported inhibition values for a set of compounds.

| COMPOUND | TARGET_OR_TEST_SYSTEM | inhibition / % |
| --- | --- | --- |
| O=C1Nc2ccc(I)cc2C1=Cc1cc(Br)c(O)c(Br)c1 | Serine/threonine-protein kinase TBK1 (Homo sapiens) | 3.66 |
| CCS(=O)(=O)c1ccc(OC)c(Nc2ncc(-c3cccc(-c4ccccc4F)c3)o2)c1 | Serine/threonine-protein kinase TBK1 (Homo sapiens) | 0.72 |
| Fc1ccc(-c2nc3n(c2-c2ccncc2)CCS3)cc1 | Serine/threonine-protein kinase TBK1 (Homo sapiens) | 2.27 |
| Cc1ccc(NC(=O)c2ccoc2)cc1-c1ccc(C(=O)NCC2CC2)cc1 | Serine/threonine-protein kinase TBK1 (Homo sapiens) | 0.28 |
| NCc1ccc(-n2c(-c3nonc3N)nc3cnccc32)cc1 | Serine/threonine-protein kinase TBK1 (Homo sapiens) | 4.35 |
| COc1ccc(-c2ccc3c(NC(=O)C4CC4)n[nH]c3n2)cc1 | Serine/threonine-protein kinase TBK1 (Homo sapiens) | 2.33 |
| COc1cc2ncn(-c3cc(OCc4cccs4)c(C(N)=O)s3)c2cc1OC | Serine/threonine-protein kinase TBK1 (Homo sapiens) | 3.06 |
| C[C@@H](Oc1cc(-n2cnc3ccc(OCC4CCN(C)CC4)cc32)sc1C(N)=O)c1ccccc1Cl | Serine/threonine-protein kinase TBK1 (Homo sapiens) | 4.93 |
| COc1cc2ncn(-c3cc(OCCc4ccccc4)c(C(N)=O)s3)c2cc1OC | Serine/threonine-protein kinase TBK1 (Homo sapiens) | 0.96 |
| Nc1nccc(-c2c(-c3ccc(F)cc3)ncn2C2CCC(O)CC2)n1 (stereo unspecified) | Serine/threonine-protein kinase TBK1 (Homo sapiens) | 5.52 |
| COc1ccc2cc(-c3c(-c4ccncc4)nc(-c4ccc(S(C)(=O)=O)cc4C)n3C)ccc2c1 | Serine/threonine-protein kinase TBK1 (Homo sapiens) | 2.5 |
| C[C@@H](Oc1cc(-n2cnc3ccc(OC4CCN(C)CC4)cc32)sc1C(N)=O)c1ccccc1Cl | Serine/threonine-protein kinase TBK1 (Homo sapiens) | 4.61 |
| COC(=O)Nc1nc2ccc(Sc3ccc(NC(=O)Nc4cc(C(F)(F)F)ccc4F)cc3)cc2[nH]1 | Serine/threonine-protein kinase TBK1 (Homo sapiens) | -0.64 |
| Fc1ccc(-c2c(-c3ccncc3)nc3n2CCS3)cc1 | Serine/threonine-protein kinase TBK1 (Homo sapiens) | 0.11 |
| NC(=O)c1cc(-c2ccc(F)cc2)cc(-c2ccncc2)c1N | Serine/threonine-protein kinase TBK1 (Homo sapiens) | 3.66 |
| COc1cc(Nc2ncc3c(C)nc(-c4cccc(C(F)(F)F)c4)n3n2)cc(OC)c1OC | Serine/threonine-protein kinase TBK1 (Homo sapiens) | 1.64 |
| COc1cc(Nc2ncc3c(C)nc(-c4cccc(Oc5ccccc5)c4)n3n2)cc(OC)c1OC | Serine/threonine-protein kinase TBK1 (Homo sapiens) | 4.47 |
| COc1cccc(-n2cnc3c(N/N=C/c4ccncc4)ncnc32)c1 | Serine/threonine-protein kinase TBK1 (Homo sapiens) | 0.99 |
| NS(=O)(=O)c1ccc(N/N=C2\C(=O)Nc3ccc(C(=O)NCCCn4ccnc4)cc32)cc1 | Serine/threonine-protein kinase TBK1 (Homo sapiens) | 3.93 |
| CCc1nccc2c1nc(-c1nonc1N)n2CC | Serine/threonine-protein kinase TBK1 (Homo sapiens) | 1.12 |
| c1ccc(-c2n[nH]cc2-c2ccnc(-c3ccc(OCCN4CCOCC4)cc3)c2)nc1 | Serine/threonine-protein kinase TBK1 (Homo sapiens) | 1.5 |

Value source: ChEMBL document CHEMBL1961873
